Study system: T1, human EphB2 (Homo sapiens, UniProt P29323)
T1 construct: a protein of the extracellular region of each human Eph receptor fused with the SEAP protein and the His tag; made in house; host or cells: Expi293F cells
T1 sequence (P29323 19-543 limits assumed): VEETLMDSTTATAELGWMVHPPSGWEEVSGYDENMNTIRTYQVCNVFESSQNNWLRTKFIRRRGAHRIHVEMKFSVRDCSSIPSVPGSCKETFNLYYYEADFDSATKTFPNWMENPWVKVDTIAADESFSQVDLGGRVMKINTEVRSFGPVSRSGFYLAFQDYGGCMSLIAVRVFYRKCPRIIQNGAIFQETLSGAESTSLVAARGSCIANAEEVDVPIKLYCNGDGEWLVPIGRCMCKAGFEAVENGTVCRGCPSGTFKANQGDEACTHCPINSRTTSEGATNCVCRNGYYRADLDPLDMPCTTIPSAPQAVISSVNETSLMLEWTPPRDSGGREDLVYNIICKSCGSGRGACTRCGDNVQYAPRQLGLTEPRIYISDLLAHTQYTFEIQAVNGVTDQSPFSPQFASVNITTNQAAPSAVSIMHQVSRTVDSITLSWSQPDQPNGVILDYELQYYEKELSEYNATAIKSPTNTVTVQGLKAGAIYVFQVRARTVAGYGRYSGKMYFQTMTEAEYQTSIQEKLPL
Assay name: Selectivity ELISA of humanized antibodies for human Eph receptor
Assay type: binding
Run parameters: coated protein 1 nM
Experimental endpoint: hEphB2-SEAP-: absorbance at 450 nm, percentage with respect to hEphA4-SEAP-His as 100% (%)

molecule="159 (antibody, V domains shown, synthetic humanized antibody heavy chain variable region sequence; synthetic humanized antibody light chain variable region sequence) VH: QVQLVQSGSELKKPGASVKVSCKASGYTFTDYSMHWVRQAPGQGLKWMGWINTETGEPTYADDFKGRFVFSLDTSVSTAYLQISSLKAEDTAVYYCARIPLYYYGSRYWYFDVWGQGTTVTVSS VL: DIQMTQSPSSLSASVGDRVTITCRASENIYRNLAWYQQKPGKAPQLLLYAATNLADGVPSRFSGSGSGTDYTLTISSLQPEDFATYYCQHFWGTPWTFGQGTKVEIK" test_value=5.4
molecule="95 (antibody, V domains shown, constant regions without entry; synthetic humanized antibody light chain variable region sequence; synthetic humanized antibody heavy chain variable region sequence) VL: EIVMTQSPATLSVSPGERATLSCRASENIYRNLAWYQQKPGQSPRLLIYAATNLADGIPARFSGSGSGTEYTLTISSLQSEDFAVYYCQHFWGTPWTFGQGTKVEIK VH: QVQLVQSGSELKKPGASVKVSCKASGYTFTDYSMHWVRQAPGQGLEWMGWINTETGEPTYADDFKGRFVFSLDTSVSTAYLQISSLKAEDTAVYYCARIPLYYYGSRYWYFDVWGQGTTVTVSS" test_value=4.7
